Exercise: for every item that follows, state its recorded pIC50.
Target: Capsid scaffolding protein (Human cytomegalovirus (strain AD169) (HHV-5) (Human herpesvirus 5))
Assay: Inhibitory activity against Human Cytomegalovirus (hCMV) protease
Answers are plain numbers, as −log10 of the molar value.

[
  {
    "smilesStr": "Cc1csc2nc(Cc3ccc(C(=O)c4cccc(CO)c4)cc3)oc(=O)c12",
    "endpointLabel": "pIC50",
    "observedValue": 5.96
  }
]

Okay, now this compound:
// sample `CC(=O)ON(C(C)=O)c1cccc(C(=O)c2ccc(Cc3nc4scc(C)c4c(=O)o3)cc2)c1` , its pIC50 was 5.85

----------
Target: Capsid scaffolding protein (Human cytomegalovirus (strain AD169) (HHV-5) (Human herpesvirus 5))
Sequence (P16753 whole entry): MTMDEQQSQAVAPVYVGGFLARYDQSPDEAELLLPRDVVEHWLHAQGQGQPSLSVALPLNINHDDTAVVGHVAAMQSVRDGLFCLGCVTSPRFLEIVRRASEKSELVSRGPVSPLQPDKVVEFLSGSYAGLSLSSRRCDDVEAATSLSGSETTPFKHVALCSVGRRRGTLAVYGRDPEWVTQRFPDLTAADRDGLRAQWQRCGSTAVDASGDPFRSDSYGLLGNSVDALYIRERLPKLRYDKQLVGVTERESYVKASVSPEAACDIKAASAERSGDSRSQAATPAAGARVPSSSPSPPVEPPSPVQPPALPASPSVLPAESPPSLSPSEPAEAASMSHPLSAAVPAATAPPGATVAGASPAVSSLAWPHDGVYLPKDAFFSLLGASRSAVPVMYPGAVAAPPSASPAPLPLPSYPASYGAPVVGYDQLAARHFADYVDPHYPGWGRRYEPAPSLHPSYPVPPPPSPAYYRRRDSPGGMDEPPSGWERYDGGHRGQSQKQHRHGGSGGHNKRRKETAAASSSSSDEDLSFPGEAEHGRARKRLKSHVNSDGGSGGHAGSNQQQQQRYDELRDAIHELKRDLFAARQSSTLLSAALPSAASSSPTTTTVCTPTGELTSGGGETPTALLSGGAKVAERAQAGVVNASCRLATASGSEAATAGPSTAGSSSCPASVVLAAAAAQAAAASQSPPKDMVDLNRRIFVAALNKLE
Assay: Inhibitory activity against Human Cytomegalovirus (hCMV) protease
Hi! Just check whether IC50 is below 2000 nM. Below gives yes (1), equal or above gives no (0).

[
  {
    "molecule": "Cc1ccc(C(=O)c2cccc(NO)c2)cc1",
    "classLabel": "no (0)"
  },
  {
    "molecule": "CC(=O)c1cccc(NO)c1",
    "classLabel": "no (0)"
  },
  {
    "molecule": "Cc1csc2nc(Cc3cccc(NC(=O)c4ccc(NN)cc4)c3)oc(=O)c12",
    "classLabel": "no (0)"
  },
  {
    "molecule": "NO [HYDROXYLAMMONIUM CHLORIDE]",
    "classLabel": "no (0)"
  },
  {
    "molecule": "Cc1csc2nc(Cc3ccc(C(=O)c4ccccc4)cc3)oc(=O)c12",
    "classLabel": "yes (1)"
  }
]

Find out if reported IC50 for `Cc1csc2nc(Cc3ccc(C(=O)c4cccc(N=O)c4)cc3)oc(=O)c12` is less than 2000 nM
yes (1)

Dear colleague, could you confirm whether IC50 of `Cc1csc2nc(Cc3cccc(NC(=O)c4cccc(NO)c4)c3)oc(=O)c12` falls below 2000 nM? Thanks.
yes (1)

In the record for `Cc1csc2nc(Cc3ccc(C(=O)c4cccc(NO)c4)cc3)oc(=O)c12` , is IC50 less than 2000 nM?
yes (1)

Quick check: does `Cc1csc2nc(Cc3ccc(C(=O)c4cccc(N)c4)cc3)oc(=O)c12` have IC50 under 2000 nM?
yes (1)

# TODO verify IC50 < 2000 nM strictly for this molecule: `Cc1csc2nc(Cc3ccc(C(=O)c4cccc([N+](=O)[O-])c4)cc3)oc(=O)c12`
no (0)

Consider the molecule `Cc1csc2nc(Cc3cccc(NC(=O)c4ccc(NO)cc4)c3)oc(=O)c12` . Is its IC50 strictly less than 2000 nM?
yes (1)

Confirm or reject: IC50 of `Cc1csc2nc(Cc3cccc(NC(=O)c4cccc(NN)c4)c3)oc(=O)c12` lies strictly below 2000 nM
no (0)

Does `CC(=O)N(O)c1cccc(C(=O)c2ccc(Cc3nc4scc(C)c4c(=O)o3)cc2)c1` have IC50 strictly under 2000 nM?
yes (1)

Dear colleague, could you confirm whether IC50 of `Cc1csc2nc(Cc3ccc(C(=O)c4ccc(CO)cc4)cc3)oc(=O)c12` falls below 2000 nM? Thanks.
yes (1)

Dear colleague, could you confirm whether IC50 of `CONc1cccc(C(=O)Nc2cccc(Cc3nc4scc(C)c4c(=O)o3)c2)c1` falls below 2000 nM? Thanks.
no (0)

IC50 strictly < 2000 nM for this molecule? `ONc1ccccc1`
no (0)

Criterion: IC50 strictly below 2000 nM. Is it met by `Cc1csc2nc(Cc3cccc(NC(=O)c4ccccc4)c3)oc(=O)c12` ?
yes (1)

I wonder whether `Cc1csc2nc(Cc3ccc(C(=O)c4ccc(NO)cc4)cc3)oc(=O)c12` has IC50 below 2000 nM. Can you tell?
yes (1)
